The reader will find reported Plant response rating, Crabgrass values listed item by item below.
test system: crabgrass; assay: Test B pre/postemergence crabgrass; format: in vivo, Digitaria sanguinalis; settings: Preemergence, Rate 250 g/ha; scale of 0 to 10 where 0 is no effect and 10 is complete control
Lab note: jot down the number only; don't add units.

For orientation, consider the following solved cases.
Cc1cccc(Cl)c1-n1c(=O)on(C(=O)N(c2ccc(F)cc2)C(C)C)c1=O: 7
Cc1cc(C)c(-n2c(=O)on(C(=O)N(c3ccc(F)cc3)C(C)C)c2=O)c(C)c1: 1
COc1cccc(C)c1-n1c(=O)on(C(=O)N(c2ccc(F)cc2F)C(C)C)c1=O: 5
Cc1ccccc1-n1c(=O)on(C(=O)N(c2cc(F)cc(F)c2)C(C)C)c1=O: 4
CCCn1c(=O)on(C(=O)N(c2ccc(F)cc2)C(C)C)c1=O: 10
Cc1cccc(C)c1-n1c(=O)on(C(=O)N(c2ccc(F)cc2)C(C)C)c1=O: 8
Cc1ccccc1Cn1c(=O)on(C(=O)N(c2ccc(F)cc2F)C(C)C)c1=O: 10

Can you share its Plant response rating, Crabgrass? I mean this compound: `Cc1nn(C)c(Cl)c1-n1c(=O)on(C(=O)N(c2ccc(F)cc2F)C(C)C)c1=O`
7

###

test system: smallflower flatsedge; assay: Test B flood test smallflower flatsedge; assay type: in vivo, Cyperus difformis; details: Rate 250 g/ha; Pre-emergence; flood-test species; scale 0 to 10, 0 is no effect, 10 is complete control
The reader will find reported S. Flatsedge plant response rating values listed item by item below.
Lab note: jot down the number only; don't add units.

For orientation, consider the following solved cases.
Cc1ccccc1-n1c(=O)on(C(=O)N(c2ccc(Cl)cc2Cl)C(C)C)c1=O [Compound 185]: 0
CCN(C(=O)n1oc(=O)n(C2CCCCC2)c1=O)C1CCCCC1 [Compound 308]: 0

Query the reported S. Flatsedge plant response rating for smallflower flatsedge; item: Cc1nnsc1Cn1c(=O)on(C(=O)N(c2ccccc2)C(C)C)c1=O [Compound 378]
0

Next compound: Cc1nsc(Cl)c1Cn1c(=O)on(C(=O)N(c2ccccc2)C(C)C)c1=O [Compound 374]
0

Next compound: CC(C)N(C(=O)n1oc(=O)n(CCC2OCCCO2)c1=O)c1ccc(F)cc1 [Compound 255]
0

Next compound: Cc1nc(C)c(Cn2c(=O)on(C(=O)N(c3ccc(F)cc3)C(C)C)c2=O)s1 [Compound 232]
0

Next compound: CC1CC1n1c(=O)on(C(=O)N(c2ccc(Cl)cc2)C(C)C)c1=O (centres unmarked) [Compound 369]
0

Next compound: COC(Cn1c(=O)on(C(=O)N(c2ccc(F)cc2)C(C)C)c1=O)OC [Compound 317]
0

Next compound: CC(=O)Cn1c(=O)on(C(=O)N(c2ccc(F)cc2)C(C)C)c1=O [Compound 217]
0

Next compound: Cc1nc(C)c(Cn2c(=O)on(C(=O)N(c3ccc(F)cc3)C(C)C)c2=O)s1 [Compound 192]
0

Next compound: CC(C)N(C(=O)n1oc(=O)n(Cc2ccco2)c1=O)c1ccc(F)cc1F [Compound 208]
0

###

test system: velvetleaf; assay: Test B pre/postemergence velvetleaf; assay type: in vivo, Abutilon theophrasti; details: Preemergence, Rate 500 g/ha; scale 0 (no effect) to 10 (complete control)
The reader will find reported Velvetleaf plant response rating values listed item by item below.

CCc1cccc(C)c1-n1c(=O)on(C(=O)N(c2ccc(F)cc2)C(C)C)c1=O: 0
Cc1ccccc1-n1c(=O)on(C(=O)N(c2ccc([N+](=O)[O-])cc2)C(C)C)c1=O: 0
Cc1cccc(C)c1-n1c(=O)on(C(=O)N(c2ccc(Cl)cc2)C(C)C)c1=O: 0
CCN(CC)C(=O)n1oc(=O)n(Cc2cccs2)c1=O: 3

# evaluate next
Can you share its Velvetleaf plant response rating? I mean this compound: `Cc1nn(C)c(Cl)c1-n1c(=O)on(C(=O)N(c2ccc(F)cc2F)C(C)C)c1=O`
0

###

test system: rape; assay: Test B pre/postemergence rape; type: in vivo, Brassica napus; conditions: Preemergence, Rate 250 g/ha; scale 0 to 10, 0 is no effect, 10 is complete control
test_readout: Rape plant response rating
Lab note: jot down the number only; don't add units.

For orientation, consider the following solved cases.
CC(C)N(C(=O)n1oc(=O)n(Cc2ccco2)c1=O)c1ccc(F)cc1F: 0
C=C(C)CCn1c(=O)on(C(=O)N(c2ccc(F)cc2)C(C)C)c1=O: 0
CC(C)N(C(=O)n1oc(=O)n(CO)c1=O)c1ccc(F)cc1: 0
CCCn1c(=O)on(C(=O)N(c2ccc(F)cc2F)C(C)C)c1=O: 10
CC(C)N(C(=O)n1oc(=O)n(C(C)Cl)c1=O)c1ccccc1 (stereo not drawn): 0

# evaluate next
Can you share its Rape plant response rating? I mean this compound: `CC(C)N(C(=O)n1oc(=O)n(CCBr)c1=O)c1ccccc1`
10

###

tested on: cocklebur; assay: Test B pre/postemergence cocklebur; type: in vivo, Xanthium strumarium; conditions: Rate 250 g/ha; Postemergence
The reader will find reported Plant response rating (0 to 10; 0 is no effect, 10 is complete control), Cocklebur values listed item by item below.
Lab note: jot down the number only; don't add units.

For orientation, consider the following solved cases.
CC(C)N(C(=O)n1oc(=O)n([C@H](C)c2ccccc2)c1=O)c1ccc(F)cc1: 0
C=C(C)CCn1c(=O)on(C(=O)N(c2ccc(F)cc2)C(C)C)c1=O: 0
COc1nc(OC)nc(N(C(=O)n2oc(=O)n(-c3ccccc3C)c2=O)C(C)C)n1: 0

Can you share its Plant response rating (0 to 10; 0 is no effect, 10 is complete control), Cocklebur? I mean this molecule: `CSc1ccc(N(C(=O)n2oc(=O)n(-c3ccccc3C)c2=O)C(C)C)cc1`
1

Next molecule: `CC(C)N(C(=O)n1oc(=O)n(N(C)C)c1=O)c1ccccc1`
0

Next molecule: `CC(C)N(C(=O)n1oc(=O)n(Cc2ccco2)c1=O)c1ccc(F)cc1F`
0

Next molecule: `Cc1nc(C)c(Cn2c(=O)on(C(=O)N(c3ccc(F)cc3)C(C)C)c2=O)s1`
2

Next molecule: `C#CCn1c(=O)on(C(=O)N(c2ccc(F)cc2)C(C)C)c1=O`
2

Next molecule: `CCc1cccc(C)c1-n1c(=O)on(C(=O)N(c2ccc(F)cc2)C(C)C)c1=O`
0

###

The reader will find reported Plant response rating, B. signalgrass values listed item by item below.
system: surinam grass; test: Test B pre/postemergence surinam grass; type: in vivo, Brachiaria decumbens; settings: Postemergence, Rate 125 g/ha; scale of 0 to 10 where 0 is no effect and 10 is complete control
Lab note: jot down the number only; don't add units.

For orientation, consider the following solved cases.
C=C(C)Cn1c(=O)on(C(=O)N(c2ccccc2)C(C)C)c1=O: 0
CC(C)N(C(=O)n1oc(=O)n(C(CF)CF)c1=O)c1ccc(F)cc1F: 0

# evaluate next
Can you share its Plant response rating, B. signalgrass? I mean this compound: C#CC(C)n1c(=O)on(C(=O)N(c2ccc(Cl)cc2)C(C)C)c1=O (racemic)
0

###

system: rape; test: Test B pre/postemergence rape; assay type: in vivo, Brassica napus; conditions: Postemergence, Rate 125 g/ha; scale 0 to 10, 0 is no effect, 10 is complete control
The reader will find reported Rape plant response rating values listed item by item below.
Lab note: jot down the number only; don't add units.

For orientation, consider the following solved cases.
CC(C)N(C(=O)n1oc(=O)n(C(C)C(=O)c2ccccc2)c1=O)c1ccc(F)cc1F (stereo not shown): 1
CC(C)N(C(=O)n1oc(=O)n(COCc2ccccc2)c1=O)c1ccc(F)cc1F: 0
CC(C)N(C(=O)n1oc(=O)n(CCCC(F)(F)F)c1=O)c1ccc(F)cc1F: 4

Query the reported Rape plant response rating for rape; item: `CC(C)N(C(=O)n1oc(=O)n(CC2CCC2)c1=O)c1ccc(F)cc1F`
0

###

system: rice; assay: Test B flood test rice; assay type: in vivo, Oryza sativa; conditions: Rate 125 g/ha; under heading Pre-emergence; flood test species; visual evaluation after twelve to sixteen days
test_readout: Rice plant response rating (0 to 10 scale, 0 is no effect, 10 is complete control)
Lab note: jot down the number only; don't add units.

CCC(C)n1c(=O)on(C(=O)N(c2ccccc2)C(C)C)c1=O (stereo not drawn) [Compound 610]: 0

Query the reported Rice plant response rating (0 to 10 scale, 0 is no effect, 10 is complete control) for rice; item: CC(C)N(C(=O)n1oc(=O)n(CO)c1=O)c1ccc(F)cc1 [Compound 470]
0

Next compound: Cc1nnsc1Cn1c(=O)on(C(=O)N(c2ccccc2)C(C)C)c1=O [Compound 378]
0

Next compound: COCCn1c(=O)on(C(=O)N(c2ccc(F)cc2)C(C)C)c1=O [Compound 627]
0

Next compound: CC(C)N(C(=O)n1oc(=O)n(CC2CCC2)c1=O)c1ccc(F)cc1F [Compound 521]
0

Next compound: CC(C)N(C(=O)n1oc(=O)n(N2C(C)CCCC2C)c1=O)c1ccc(F)cc1 (stereo not drawn) [Compound 382]
0

Next compound: CC(C)N(C(=O)n1oc(=O)n(CCC2=NOCCC2)c1=O)c1ccc(F)cc1 [Compound 656]
0

Next compound: CC(C)N(C(=O)n1oc(=O)n(CCC#N)c1=O)c1ccc(F)cc1 [Compound 388]
0

Next compound: CC(C)N(C(=O)n1oc(=O)n(CC2CCCCO2)c1=O)c1ccc(Cl)cc1 (stereo not drawn) [Compound 660]
0
